Cited source: patent US8148410B2

target: recombinant human S1P1 receptor (Homo sapiens); experiment: GTPγS assay to determine EC50 values; conditions: agonist concentration inducing 50% of maximal specific 35S-GTPγS binding; membranes of CHO cells expressing recombinant human S1P1
Sequence (P21453 whole entry): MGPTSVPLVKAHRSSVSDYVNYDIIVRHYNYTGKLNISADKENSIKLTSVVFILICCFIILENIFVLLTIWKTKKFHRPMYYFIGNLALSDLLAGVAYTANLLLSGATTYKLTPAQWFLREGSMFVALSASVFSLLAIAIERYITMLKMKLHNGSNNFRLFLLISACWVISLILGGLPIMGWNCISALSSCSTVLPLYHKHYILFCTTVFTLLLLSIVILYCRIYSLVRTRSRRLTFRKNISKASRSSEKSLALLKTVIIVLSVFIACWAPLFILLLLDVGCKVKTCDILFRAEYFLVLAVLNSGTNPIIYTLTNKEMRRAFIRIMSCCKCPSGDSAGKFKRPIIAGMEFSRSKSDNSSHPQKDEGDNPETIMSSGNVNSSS
EC50 values for the compounds below.

CCN(CC)Cc1sc(-c2nc(-c3cc(C)c(OC[C@@H](O)CNC(=O)CO)c(Cl)c3)no2)cc1C; 0.2 nM
Cc1cc(-c2nc(-c3cc(C)c(OCC(O)CNC(=O)CO)c(C)c3)no2)sc1CN1CCCC1 (racemic); 11.2 nM
Cc1cc(-c2nc(-c3cc(C)c(OC[C@@H](O)CNC(=O)CO)c(C)c3)no2)sc1CN(C)C; 0.6 nM

Incoming: Any idea what EC50 was measured for CCN(CC)Cc1sc(-c2nc(-c3ccc(OCC(O)CNC(=O)CO)cc3C)no2)cc1C (stereo not shown) ?
Outgoing: 13 nM
